# MEASURED_ON: UniProtKB P22303
# Sequence (P22303 32-614): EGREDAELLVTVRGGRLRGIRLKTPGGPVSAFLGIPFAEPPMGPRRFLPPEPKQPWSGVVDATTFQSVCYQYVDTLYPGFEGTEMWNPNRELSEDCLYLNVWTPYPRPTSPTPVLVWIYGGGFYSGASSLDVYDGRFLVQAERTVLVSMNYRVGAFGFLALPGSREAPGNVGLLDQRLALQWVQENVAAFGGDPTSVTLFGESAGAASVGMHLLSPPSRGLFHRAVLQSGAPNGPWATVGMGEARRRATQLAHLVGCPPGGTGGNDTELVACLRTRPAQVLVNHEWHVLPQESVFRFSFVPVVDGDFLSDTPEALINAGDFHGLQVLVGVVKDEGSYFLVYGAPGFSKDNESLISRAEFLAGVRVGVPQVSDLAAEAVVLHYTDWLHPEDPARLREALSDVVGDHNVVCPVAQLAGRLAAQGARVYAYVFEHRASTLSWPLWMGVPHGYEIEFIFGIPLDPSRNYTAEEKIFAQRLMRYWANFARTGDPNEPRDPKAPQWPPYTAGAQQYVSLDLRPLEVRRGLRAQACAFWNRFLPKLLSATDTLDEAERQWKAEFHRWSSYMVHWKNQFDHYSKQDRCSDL
# TEST_DESCRIPTION: biochemical
# Type: biochemical
# SETUP_CONDITIONS: AChE selectivity index = IC50 (BChE)/IC50 (AChE)
Kindly supply the reported SI BChE/AChE values for the records listed here.
Please give the numeric answer without any surrounding text.

Which SI BChE/AChE reading was recorded for the compound COc1cc2oc(-c3ccc(F)cc3)c(OC3OC(COC(C)=O)C(OC(C)=O)C(OC(C)=O)C3OC(C)=O)c(=O)c2cc1I (stereo not shown) ?
5.49

Which SI BChE/AChE reading was recorded for the compound "CC(=O)OC[C@H]1O[C@@H](Oc2c(-c3ccc(Cl)cc3)oc3cc(F)c(I)cc3c2=O)[C@H](OC(C)=O)[C@@H](OC(C)=O)[C@@H]1OC(C)=O" ?
1.25

Which SI BChE/AChE reading was recorded for the compound "COc1cc2oc(-c3ccccc3)c(O[C@@H]3O[C@H](COC(C)=O)[C@@H](OC(C)=O)[C@H](OC(C)=O)[C@H]3OC(C)=O)c(=O)c2cc1I" ?
0.53

Which SI BChE/AChE reading was recorded for the compound "CC(=O)OC[C@H]1O[C@@H](Oc2c(-c3ccccc3)oc3cc(F)c(I)cc3c2=O)[C@H](OC(C)=O)[C@@H](OC(C)=O)[C@@H]1OC(C)=O" ?
1.40

Which SI BChE/AChE reading was recorded for the compound "COc1ccc(-c2oc3cc(F)c(I)cc3c(=O)c2O[C@@H]2O[C@H](COC(C)=O)[C@@H](OC(C)=O)[C@H](OC(C)=O)[C@H]2OC(C)=O)cc1" ?
0.32

Which SI BChE/AChE reading was recorded for the compound COc1ccc(-c2oc3cc(Br)c(I)cc3c(=O)c2OC2OC(COC(C)=O)C(OC(C)=O)C(OC(C)=O)C2OC(C)=O)cc1 (stereo not shown) ?
1.43

Which SI BChE/AChE reading was recorded for the compound "CC(=O)OC[C@H]1O[C@@H](Oc2c(-c3ccccc3)oc3cc(Br)c(I)cc3c2=O)[C@H](OC(C)=O)[C@@H](OC(C)=O)[C@@H]1OC(C)=O" ?
0.14

Which SI BChE/AChE reading was recorded for the compound "CC(=O)OC[C@H]1O[C@@H](Oc2c(-c3ccc(F)cc3)oc3cc(F)c(I)cc3c2=O)[C@H](OC(C)=O)[C@@H](OC(C)=O)[C@@H]1OC(C)=O" ?
0.78

Which SI BChE/AChE reading was recorded for the compound "CC(=O)OC[C@H]1O[C@@H](Oc2c(-c3ccc(F)cc3)oc3cc(Br)c(I)cc3c2=O)[C@H](OC(C)=O)[C@@H](OC(C)=O)[C@@H]1OC(C)=O" ?
1.31

Which SI BChE/AChE reading was recorded for the compound "CC(=O)OC[C@H]1O[C@@H](Oc2c(-c3ccc(F)cc3)oc3cc(Cl)c(I)cc3c2=O)[C@H](OC(C)=O)[C@@H](OC(C)=O)[C@@H]1OC(C)=O" ?
0.44

Which SI BChE/AChE reading was recorded for the compound "COc1cc2oc(-c3ccc(Cl)cc3)c(O[C@@H]3O[C@H](COC(C)=O)[C@@H](OC(C)=O)[C@H](OC(C)=O)[C@H]3OC(C)=O)c(=O)c2cc1I" ?
1.28

Which SI BChE/AChE reading was recorded for the compound "COc1ccc(-c2oc3cc(Cl)c(I)cc3c(=O)c2O[C@@H]2O[C@H](COC(C)=O)[C@@H](OC(C)=O)[C@H](OC(C)=O)[C@H]2OC(C)=O)cc1" ?
0.39

Which SI BChE/AChE reading was recorded for the compound CC(=O)OCC1OC(Oc2c(-c3ccc(Cl)cc3)oc3cc(Br)c(I)cc3c2=O)C(OC(C)=O)C(OC(C)=O)C1OC(C)=O (stereo not shown) ?
5.78

Which SI BChE/AChE reading was recorded for the compound CC(=O)OCC1OC(Oc2c(-c3ccccc3)oc3cc(Cl)c(I)cc3c2=O)C(OC(C)=O)C(OC(C)=O)C1OC(C)=O (stereo not shown) ?
0.26

Which SI BChE/AChE reading was recorded for the compound CC(=O)OCC1OC(Oc2c(-c3ccc(Cl)cc3)oc3cc(Cl)c(I)cc3c2=O)C(OC(C)=O)C(OC(C)=O)C1OC(C)=O (stereo not shown) ?
0.23

Which SI BChE/AChE reading was recorded for the compound COc1ccc(-c2oc3cc(OC)c(I)cc3c(=O)c2OC2OC(COC(C)=O)C(OC(C)=O)C(OC(C)=O)C2OC(C)=O)cc1 (stereo not shown) ?
0.57
